- protocol.description: Clearance in Sprague-Dawley rat at 40 mg/kg, ig measured up to 24 hrs by LC-MS/MS analysis
- Type: ADME, organism-based
- run.parameters: in vivo, po
measurement.kind: CL/F (mL/min/kg)
Give bare numbers, in mL/min/kg.

IN: Request the reported CL/F associated with CNC(=O)C[C@@H]1C[C@@H](c2ccc(F)c(F)c2)[C@H](NC(=O)c2cc(-c3c(Cl)cnn3C)c(Cl)o2)CN1
OUT: 237

====

Record form. Attribute: IC50. Fill in for each entry.
- Test system: HCT-116
- protocol.description: cells
- run.parameters: Homo sapiens, HCT-116, 72 h
One number for each entry, in nM.

Before answering, review these 5 worked examples.
smiles.code: Cn1ncc(Cl)c1-c1ccc(C(=O)N[C@@H]2CNCC[C@H]2c2cccc(F)c2)nc1
IC50 / nM: 4720
//
smiles.code: Cn1cc(-c2c(Br)cnn2C)cc1C(=O)N[C@@H]1CNCC[C@H]1c1ccc(Cl)cc1
IC50 / nM: 8700
//
smiles.code: COCC[C@@H]1C[C@@H](c2ccc(Cl)c(Cl)c2)[C@H](NC(=O)c2cc(-c3c(Cl)cnn3C)c(Cl)o2)CN1
IC50 / nM: 470
//
smiles.code: Cn1nccc1-c1csc(C(=O)N[C@@H]2CNCC[C@H]2c2ccc(Cl)cc2)c1
IC50 / nM: 8510
//
smiles.code: Cn1ncc(Cl)c1-c1ccc(C(=O)N[C@@H]2CNCC[C@H]2c2ccc(Cl)cc2)o1
IC50 / nM: 2560

Parameter requested: IC50. Apply to each item below.
1. Cn1ncc(Cl)c1-c1cc(C(=O)N[C@H]2CNCC[C@@H]2c2ccc(C(F)(F)F)cc2)oc1Cl
2. Cn1ncc(Br)c1-c1ccc(C(=O)N[C@@H]2CNCC[C@H]2c2ccc(F)c(F)c2)cn1
3. Cn1nccc1-c1oc(C(=O)N[C@@H]2CNCC[C@H]2c2ccc(Cl)cc2)cc1Br
4. Cn1ncc(Cl)c1-c1cc(C(=O)N[C@@H]2CNCC[C@H]2c2ccc(F)c(F)c2)oc1Cl.O=C(O)C(O)C(O)C(=O)O

OUT:
1. 1050
2. 26900
3. 13700
4. 210

Okay, here is my list. What is IC50 for each of these?
1. Cn1ncc(Cl)c1-c1cc(C(=O)N[C@@H]2CNCC[C@H]2c2ccc(Cl)cc2)oc1Cl
2. CC(=O)OCC[C@@H]1C[C@@H](c2ccc(F)c(F)c2)[C@H](NC(=O)c2cc(-c3c(Cl)cnn3C)c(Cl)o2)CN1

OUT:
1870
690
